Target: cyclin G-associated kinase (GAK) (Homo sapiens, UniProt O14976)
Sequence (O14976 20-347): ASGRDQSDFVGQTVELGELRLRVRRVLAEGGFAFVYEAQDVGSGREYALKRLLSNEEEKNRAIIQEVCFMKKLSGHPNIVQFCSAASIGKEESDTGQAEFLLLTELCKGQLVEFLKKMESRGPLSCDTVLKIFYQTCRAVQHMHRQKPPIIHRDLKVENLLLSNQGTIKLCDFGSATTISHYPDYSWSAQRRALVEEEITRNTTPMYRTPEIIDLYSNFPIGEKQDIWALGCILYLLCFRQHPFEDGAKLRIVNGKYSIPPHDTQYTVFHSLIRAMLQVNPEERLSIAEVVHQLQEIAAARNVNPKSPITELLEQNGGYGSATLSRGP
Test: Fragment screening by zonal weak affinity chromatography
Assay type: binding
Readout kind: Kd (µM)
The reply should be a number in µM, with the unit left off.

Enquiry: Would you mind telling me what Kd value was observed for Nc1ncnc2c1ncn2[C@@H]1O[C@H](CO)[C@@H](O)[C@H]1O ?
Return: 41
